- test.name: blood-stage malaria parasite viability loss – strain 3D7, DAPI fluorescence, 100 nL, primary screen (AID 1184);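 note: parasites grown inside human red blood cells in medium with human serum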
- condition.label: P. falciparum 3D7 growth, 3 d, higher = more signal
quantity.name: z-score
Simply state the number, no unit and no words.

These recorded examples may help you get a feel for the data.
>>> readout_number("NC(=O)[C@@]1(CCS(=O)(=O)c2ccccc2)N=C(c2ccc(OCCCO)cc2)O[C@H]1c1ccccc1")
-1.9
>>> readout_number("CN(C)CCCCCCNC(=O)[C@@H]1C[C@@H]2C(=O)NCC(=O)N2[C@@H]1c1cccc(OCCO)c1")
0.331
>>> readout_number("COc1ccc([Si](C)(C)[C@@H]2[C@@H](CC(=O)N3Cc4ccccc4C[C@H]3CO)O[C@]3(C(=O)N(Cc4cccc(N5C(=O)COc6ccccc65)c4)c4ccccc43)[C@H]2C)cc1")
-2.79

Please find the next compound below.
# query: z-score of entry CC(C)[Si]1(C(C)C)O[C@@H](c2ccccc2)c2cc(-c3ccc(-c4ccc(Cl)c(Cl)c4)o3)nc(CCc3ccccc3)c21 0.952
